# test.system: UniProt:Q15561
# Sequence (Q15561 whole entry, the tested form may be a part): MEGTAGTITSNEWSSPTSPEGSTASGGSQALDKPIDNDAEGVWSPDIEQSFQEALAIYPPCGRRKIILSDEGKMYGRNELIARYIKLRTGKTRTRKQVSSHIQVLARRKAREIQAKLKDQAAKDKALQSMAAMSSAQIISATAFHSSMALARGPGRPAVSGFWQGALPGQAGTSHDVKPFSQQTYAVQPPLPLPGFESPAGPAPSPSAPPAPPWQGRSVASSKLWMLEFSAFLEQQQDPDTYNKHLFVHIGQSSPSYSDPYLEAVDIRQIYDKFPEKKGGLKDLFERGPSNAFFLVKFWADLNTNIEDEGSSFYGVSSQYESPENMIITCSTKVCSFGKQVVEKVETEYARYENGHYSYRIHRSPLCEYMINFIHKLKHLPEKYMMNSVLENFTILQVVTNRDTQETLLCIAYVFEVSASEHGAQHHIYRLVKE
# assay.name: Induction of thermal stabilization of His-Thrb-tagged human TEAD4 (217 to 434 residues) extracted from Escherichia coli BL21 star (DE3) cells assessed as change in melting temperature at 100 uM incubated for 2 hrs by nano-differential scanning fluorimetric analysis
measured.property: ΔTm (°C)
One number for each entry, in °C.

Look over these answered cases.
Cn1ncc2c1c1cc(C(=O)O)ccc1n2-c1ccc(C(F)(F)F)cc1 ... 1
O=C(O)c1ccc2c(c1)c1c(ncn1-c1cscn1)n2-c1ccc(C(F)(F)F)cc1 ... 6
Cn1cnc2c1c1cc(C(=O)O)ccc1n2-c1ccc(C(F)(F)F)cc1 ... 4

Respectfully, I request ΔTm for each entry included below.
1. Cc1snc2c1c1cc(C(=O)O)ccc1n2-c1ccc(C(F)(F)F)cc1
2. O=C(O)c1ccc2c(c1)c1c(ncn1-c1ccccn1)n2-c1ccc(C(F)(F)F)cc1

A.
[13, 7]
